# target-of-assay: human type 1 5α-reductase (Homo sapiens)
# assay-details: 5α-reductase in vitro inhibitory activity, human type 1
measure: IC50

Some compounds with known IC50 results, for comparison:
1. C[C@]12CC[C@H]3[C@@H](CNC4=CC(=O)CC[C@@]43C)[C@@H]1CC[C@@H]2C(=O)Nc1cc(C(F)(F)F)ccc1F
10 to 100 nM
2. C[C@]12CC[C@H]3[C@@H](CNC4=CC(=O)CC[C@@]43C)[C@@H]1CC[C@@H]2C(=O)Nc1ccccc1C(=O)c1ccccc1
10 to 100 nM

--- query ---
Dear colleague, I am looking for the recorded IC50 of the following compound: CC(C)(C)c1ccc(C2(NC(=O)[C@H]3CC[C@H]4[C@@H]5CNC6=CC(=O)CC[C@]6(C)[C@H]5CC[C@]34C)CCOCC2)cc1
< 10 nM

====

Quick list: IC50 per entry.
# target-of-assay: human type 2 5α-reductase (Homo sapiens, UniProt P31213)
# assay-details: 5α-reductase in vitro inhibitory activity, human type 2

1. CC(C)(C)c1ccc(C2(NC(=O)[C@H]3CC[C@H]4[C@@H]5CNC6=C(Cl)C(=O)CC[C@]6(C)[C@H]5CC[C@]34C)CCCCC2)cc1
< 10 nM
2. C[C@]12CC[C@H]3[C@@H](CNC4=CC(=O)CC[C@@]43C)[C@@H]1CC[C@@H]2C(=O)NCCC(c1ccccc1)c1ccccc1
< 10 nM

IC50 for CC12CCC(=O)C=C1NCC1C2CCC2(C)C(C(=O)Nc3ccccc3C(F)(F)F)CCC12 (stereo not drawn) ?
< 10 nM

====

# target-of-assay: human type 1 5α-reductase (Homo sapiens, UniProt P18405)
# Sequence (P18405 1-259): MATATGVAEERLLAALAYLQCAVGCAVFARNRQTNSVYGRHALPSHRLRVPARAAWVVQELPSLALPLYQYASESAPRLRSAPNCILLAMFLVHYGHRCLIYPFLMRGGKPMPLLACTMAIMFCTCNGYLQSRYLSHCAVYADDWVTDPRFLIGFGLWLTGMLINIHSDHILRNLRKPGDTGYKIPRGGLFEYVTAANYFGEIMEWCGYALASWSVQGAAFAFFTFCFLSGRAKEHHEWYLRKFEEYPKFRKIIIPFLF
# assay-details: 5α-reductase in vitro inhibitory activity, human type 1
measure: IC50

Worked examples follow.
1) CC(C)(C)c1ccc(C#N)cc1NC(=O)[C@H]1CC[C@H]2[C@@H]3CNC4=CC(=O)CC[C@]4(C)[C@H]3CC[C@]12C [Compound 78]
10 to 100 nM
2) CCc1cccc(CC)c1NC(=O)[C@H]1CC[C@H]2[C@@H]3CNC4=CC(=O)CC[C@]4(C)[C@H]3CC[C@]12C [Compound 76]
10 to 100 nM
3) C[C@]12CC[C@H]3[C@@H](CNC4=CC(=O)CC[C@@]43C)[C@@H]1CC[C@@H]2C(=O)Nc1cc(C(F)(F)F)ccc1-c1ccccc1 [Compound 112]
10 to 100 nM
4) C[C@]12CC[C@H]3[C@@H](CNC4=CC(=O)CC[C@@]43C)[C@@H]1CC[C@@H]2C(=O)NC1(c2ccc(F)cc2)CCCCC1 [Compound 109]
< 10 nM
5) C[C@]12CC[C@H]3[C@@H](CNC4=CC(=O)CC[C@@]43C)[C@@H]1CC[C@@H]2C(=O)Nc1ccccc1S(=O)(=O)c1ccccc1 [Compound 133]
> 100 nM

Request the reported IC50 associated with CC(C)(C)c1ccc(NC(=O)[C@H]2CC[C@H]3[C@@H]4CNC5=CC(=O)CC[C@]5(C)[C@H]4CC[C@]23C)cc1[N+](=O)[O-] [Compound 92]
10 to 100 nM

====

# target-of-assay: human type 2 5α-reductase (Homo sapiens)
# assay-details: 5α-reductase in vitro inhibitory activity, human type 2
# IC50 values compiled below

Take a look at these entries with their results.
1. C[C@]12CC[C@H]3[C@@H](CNC4=CC(=O)CC[C@@]43C)[C@@H]1CC[C@@H]2C(=O)NCCSc1ccccc1 [Compound 23]
< 10 nM
2. C[C@]12CC[C@H]3[C@@H](CNC4=CC(=O)CC[C@@]43C)[C@@H]1CC[C@@H]2C(=O)NCC(c1ccccc1)c1ccccc1 [Compound 22]
< 10 nM
3. CC(C)(C)c1ccc(NC(=O)[C@H]2CC[C@H]3[C@@H]4CNC5=CC(=O)CC[C@]5(C)[C@H]4CC[C@]23C)cc1[N+](=O)[O-] [Compound 92]
< 10 nM
4. CC(C)(C)c1ccc(Br)cc1NC(=O)[C@H]1CC[C@H]2[C@@H]3CNC4=CC(=O)CC[C@]4(C)[C@H]3CC[C@]12C [Compound 74]
< 10 nM
5. CCc1c(Cl)cc(Cl)c(CC)c1NC(=O)[C@H]1CC[C@H]2[C@@H]3CNC4=CC(=O)CC[C@]4(C)[C@H]3CC[C@]12C [Compound 54]
< 10 nM

Which measured IC50 value corresponds to C[C@]12CC[C@H]3[C@@H](CNC4=CC(=O)CC[C@@]43C)[C@@H]1CC[C@@H]2CNC(=O)NC12CC3CC(CC(C3)C1)C2 [Compound 98] ?
< 10 nM

Which value of IC50 has been reported for CC(C)(NC(=O)[C@H]1CC[C@H]2[C@@H]3CNC4=CC(=O)CC[C@]4(C)[C@H]3CC[C@]12C)c1ccccc1 [Compound 63] in the records?
< 10 nM

====

pIC50 values, listed per item
# target-of-assay: human type 1 5α-reductase (Homo sapiens)
# Sequence (P18405 1-259): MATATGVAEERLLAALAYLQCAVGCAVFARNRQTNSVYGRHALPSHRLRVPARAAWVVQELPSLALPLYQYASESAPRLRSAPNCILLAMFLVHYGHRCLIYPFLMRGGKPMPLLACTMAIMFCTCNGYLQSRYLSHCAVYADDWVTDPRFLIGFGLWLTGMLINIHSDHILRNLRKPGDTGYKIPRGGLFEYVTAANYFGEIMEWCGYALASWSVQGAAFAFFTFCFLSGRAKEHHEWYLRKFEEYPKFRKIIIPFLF
# assay-details: 5α-reductase in vitro inhibitory activity, human type 1
pIC50: −log10 of the molar value.

Examples from the recorded data:
1) CC(C)C(NC(=O)[C@H]1CC[C@H]2[C@@H]3CNC4=CC(=O)CC[C@]4(C)[C@H]3CC[C@]12C)c1ccc(Cl)cc1 (stereo partly shown)
7.00 to 8.00
2) CCOc1ccc(OCC)c(NC(=O)[C@H]2CC[C@H]3[C@@H]4CNC5=CC(=O)CC[C@]5(C)[C@H]4CC[C@]23C)c1
7.00 to 8.00
3) C[C@]12CC[C@H]3[C@@H](CNC4=CC(=O)CC[C@@]43C)[C@@H]1CC[C@@H]2C(=O)CC1CCCCC1
> 8.00

Okay, now this compound:
Fill in: pIC50 of C[C@]12CC[C@H]3[C@@H](CNC4=CC(=O)CC[C@@]43C)[C@@H]1CC[C@@H]2C(=O)NCC1CCCCC1 is ___
7.00 to 8.00

====

Entries and their IC50
# target-of-assay: human type 2 5α-reductase (Homo sapiens)
# Sequence (P31213 1-254): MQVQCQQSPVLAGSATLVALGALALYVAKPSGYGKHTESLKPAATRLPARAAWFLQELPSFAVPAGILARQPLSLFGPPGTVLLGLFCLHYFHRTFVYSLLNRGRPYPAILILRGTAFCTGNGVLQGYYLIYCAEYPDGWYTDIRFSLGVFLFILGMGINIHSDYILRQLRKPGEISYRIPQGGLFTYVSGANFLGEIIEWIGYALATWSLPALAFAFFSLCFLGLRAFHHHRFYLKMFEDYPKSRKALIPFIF
# assay-details: 5α-reductase in vitro inhibitory activity, human type 2

Here are 5 compounds together with their reported answers.
1. C[C@]12CC[C@H]3[C@@H](CNC4=CC(=O)CC[C@@]43C)[C@@H]1CC[C@@H]2C(=O)N1CCC(Cc2ccccc2)CC1 [Compound 37]
< 10 nM
2. CC1(C)Cc2ccccc2C1NC(=O)[C@H]1CC[C@H]2[C@@H]3CNC4=CC(=O)CC[C@]4(C)[C@H]3CC[C@]12C (stereo partly drawn) [Compound 110]
< 10 nM
3. C[C@]12CC[C@H]3[C@@H](CNC4=CC(=O)CC[C@@]43C)[C@@H]1CC[C@@H]2C(=O)Nc1cccc(C(=O)O)c1 [Compound 137]
< 10 nM
4. C[C@]12CC[C@H]3[C@@H](CNC4=CC(=O)CC[C@@]43C)[C@@H]1CC[C@@H]2C(=O)NCCc1ccccn1 [Compound 20]
10 to 100 nM
5. CCC(C)(C)c1ccc(Oc2ccccc2)c(NC(=O)[C@H]2CC[C@H]3[C@@H]4CNC5=CC(=O)CC[C@]5(C)[C@H]4CC[C@]23C)c1 [Compound 83]
< 10 nM

Turning now to a further compound:
Which IC50 reading was recorded for the compound C[C@]12CC[C@H]3[C@@H](CNC4=CC(=O)CC[C@@]43C)[C@@H]1CC[C@@H]2C(=O)c1ccc(F)cc1F [Compound 26] ?
< 10 nM
